Numbers sourced from paper PMC9352680.

assay system: T1, PUF4 RNA-binding domain (Saccharomyces cerevisiae, UniProt P25339 537-888)
T1 sequence: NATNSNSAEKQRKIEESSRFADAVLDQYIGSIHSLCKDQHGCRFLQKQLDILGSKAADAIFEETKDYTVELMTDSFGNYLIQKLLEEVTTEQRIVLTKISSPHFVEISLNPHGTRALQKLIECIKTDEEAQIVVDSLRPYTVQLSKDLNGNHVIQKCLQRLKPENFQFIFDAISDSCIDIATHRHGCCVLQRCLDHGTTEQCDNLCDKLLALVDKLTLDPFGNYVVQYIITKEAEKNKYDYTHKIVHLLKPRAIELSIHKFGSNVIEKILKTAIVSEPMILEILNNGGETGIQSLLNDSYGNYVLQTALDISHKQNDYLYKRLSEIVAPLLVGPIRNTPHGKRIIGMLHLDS
protocol notes: Mg; RNA-MaP; 20 mM Na-HEPES pH 7.4, 30 mM KOAc, 0.75 mM MgCl2, 0.1% Tween-20, 5% glycerol, 0.1 mg/mL BSA, 2 mM DTT; 25 C; 0.0125-409.6 nM protein
experimental parameters: tags: N-His6-TEV cleaved; C-SNAP kept, Cy3B-labelled; label: tethered on chip by stalled RNA polymerase
# pKd annotations
Units for pKd: none; it is -log10 of a concentration expressed in mol/L.

Some entries whose results are on file:
{"binder": "UCUCUUGCUAUAUAUUAAUUCUCUU (ssRNA) [Id_ii_S1_P4E.3_K4.2_C4.2_[C-2G]_[T-1C]_H4.2_A4.1_F4.1_T4.2_[G10A]]", "observed value": 7.15}
{"binder": "Ib_S4_P5E.1_K5.1_C5.1_H5.1_A5.1_[T5G]_F5.1_[T9A]_T5.1 (ssRNA) RNA: UUUGACAACUGAUCGUUCUUUCUUGUAGUAUAAUUCUUUCUCGAUCAGUUGUCUUU", "observed value": 8.12}

Could you now consider this next binder?
Identify measured pKd associated with UCUCUUUUUGUAUAUUAGGUCUCUU (ssRNA) [Id_ii_S1_P4E.2_K4.1_C4.2_[C-2T]_H4.1_A4.1_F4.1_T4.2_[T11G]]
9.05
